meta.source: ChEMBL document CHEMBL1142780

Field: inhibition. Provide a value for each of the molecules that follow.
molecular target: 5-hydroxytryptamine receptor 7 (Rattus norvegicus); experiment: Inhibition of the binding of [3H]LSD on rat 5-HT7R expressed in HEK293 cells at concentration of 10e-8 M; format: cell-based
Express it in %; write the number only.

Ask | Please give the documented inhibition of COc1ccccc1N1CCN(Cc2cccn2-c2cccc(C)c2C)CC1
Reply | 2

Ask | Give inhibition for Cc1cccc(-n2cccc2CN2CCN(C)CC2)c1C
Reply | 0

Ask | Supply measured inhibition of COc1ccccc1N1CCN(Cc2cccn2-c2cccc3ccccc23)CC1 in your reply.
Reply | 17

Ask | Identify inhibition associated with the molecule COc1ccccc1N1CCN(Cc2cccn2-c2ccccc2C)CC1
Reply | 0

Ask | Provide measured inhibition value, entry: COc1ccccc1N1CCN(Cc2cccn2-c2ccccc2C(F)(F)F)CC1
Reply | 7

* * *

What inhibition was measured for each of the following?
target: 5-hydroxytryptamine receptor 7 (Rattus norvegicus); assay: Inhibition of the binding of [3H]LSD on rat 5-HT7R expressed in HEK293 cells at concentration of 10e-6 M; type: cell-based
Your answer should be a plain number; it is taken to be in %.

Ask | For 5-hydroxytryptamine receptor 7 (Rattus norvegicus), give inhibition of the listed molecule: COc1ccccc1N1CCN(Cc2cccn2-c2ccccc2C(F)(F)F)CC1
Reply | 38

Ask | Using 5-hydroxytryptamine receptor 7 (Rattus norvegicus) as the test system, report measured inhibition of COc1ccccc1N1CCN(Cc2cccn2-c2ccccc2C#N)CC1 .
Reply | 24

Ask | # return inhibition of Cc1cccc(-n2cccc2CN2CCN(C)CC2)c1C (system: 5-hydroxytryptamine receptor 7 (Rattus norvegicus))
Reply | 33

Ask | For 5-hydroxytryptamine receptor 7 (Rattus norvegicus), give inhibition of the listed molecule: COc1ccccc1N1CCN(Cc2cccn2-c2cccc3ccccc23)CC1
Reply | 60

Ask | Retrieve inhibition on 5-hydroxytryptamine receptor 7 (Rattus norvegicus); query COc1ccccc1N1CCN(Cc2cccn2-c2cccc(C)c2C)CC1
Reply | 68

Ask | System 5-hydroxytryptamine receptor 7 (Rattus norvegicus). Read-out inhibition. Item COc1ccccc1-n1cccc1CN1CCN(C)CC1 . Report value.
Reply | 12

Ask | Enter inhibition (test system 5-hydroxytryptamine receptor 7 (Rattus norvegicus)) for COc1ccccc1N1CCN(Cc2cccn2-c2ccccc2C)CC1
Reply | 63
